Measured values drawn from PubChem BioAssay (Tox21) for this set.

test: qHTS assay to identify small molecule HDAC inhibitors (AID 1259364); conditions: HCT-116 HDAC-Glo I/II luminescence, 2 h; series mostly up to 92.4 µM;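 also: wild-type HCT-116 cells with endogenous class I/II HDAC activity; top concentration of the series differs between compounds; nearly all actives have a fitted effect of over 45% in size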
Inconclusive results are not listed. The source made the active and inactive calls. Calls follow the shape of the dose curve; as a rule, active = well fitted inhibition curve with a large enough effect in the repeat runs; inconclusive = weak or mixed curves; inactive = flat fitted curve, though single readings scatter.
reported.property: outcome

CC(C)=CCC/C(C)=C/CO; inactive
CCN1CCCC1=O; inactive
NC(=O)OCC(COC(N)=O)c1ccccc1; inactive

----------
molecular target: Nuclear receptor subfamily 1 group I member 2 (Homo sapiens) (UniProt O75469); experiment: Human pregnane X receptor (PXR) small molecule agonists, qHTS assay (AID 1346982); details: PXR-Luc HepG2, CYP3A4 luciferase reporter, 24 h; series mostly up to 92.4 µM; also: nearly all actives have a fitted effect of over 35% in size
Sequence (O75469 whole entry, looked up): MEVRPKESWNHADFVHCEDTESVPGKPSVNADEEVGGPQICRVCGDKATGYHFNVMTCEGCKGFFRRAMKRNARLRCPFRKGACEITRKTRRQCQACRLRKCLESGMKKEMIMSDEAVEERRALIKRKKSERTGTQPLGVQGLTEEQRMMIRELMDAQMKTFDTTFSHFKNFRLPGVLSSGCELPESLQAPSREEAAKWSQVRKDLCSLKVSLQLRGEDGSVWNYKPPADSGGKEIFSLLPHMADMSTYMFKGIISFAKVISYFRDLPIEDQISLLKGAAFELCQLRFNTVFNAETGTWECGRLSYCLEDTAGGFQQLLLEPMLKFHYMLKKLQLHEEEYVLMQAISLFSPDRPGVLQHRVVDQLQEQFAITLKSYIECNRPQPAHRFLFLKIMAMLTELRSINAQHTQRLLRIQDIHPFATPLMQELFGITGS
Records with an inconclusive call do not appear. Active and inactive are the calls of the source. Calls follow the shape of the dose curve; as a rule, active = well fitted activation curve with a large enough effect in the repeat runs; inconclusive = weak or mixed curves; inactive = no such curve, though single readings can be large or run the other way.
reported.property: outcome

COCC(C)N (stereo not drawn); inactive
COc1cc(O)c(C(=O)c2ccccc2)cc1S(=O)(=O)O; inactive
C1CNCCN1; inactive

----------
experiment: qHTS assay to identify small molecule antagonists of the progesterone receptor (PR) signaling pathway - cell viability counter screen (AID 1346798); details: PR-UAS-bla HEK293T viability, CellTiter-Glo luminescence, 16 h; series mostly up to 92.4 µM; also: nearly all actives have a fitted effect of over 50% in size
Inconclusive results are not listed. The source made the active and inactive calls. Calls follow the shape of the dose curve; as a rule, active = well fitted cell-killing curve with a large enough effect in the repeat runs; inconclusive = weak or mixed curves, or effect the other way; inactive = no such curve, though single readings can be large or run the other way.
Classes used: 1 (yes) = active, 0 (no) = inactive

C=CC(=O)NC(C)(C)CS(=O)(=O)O; 0 (no)
COc1ccccc1NC(=O)CC(C)=O; 0 (no)
O=C1OC(c2ccc(O)cc2)(c2ccc(O)cc2)c2ccccc21; 0 (no)
CC1(C)O[C@@H]2[C@@H](CO[C@@]3(COS(N)(=O)=O)OC(C)(C)O[C@@H]23)O1; 0 (no)
CC(=O)/C=C/C1=C(C)CCCC1(C)C; 0 (no)
C=CCOC(=O)CC(C)C; 0 (no)
N[C@@H](Cc1c[nH]c2ccccc12)C(=O)O; 0 (no)
OCCCc1ccccc1; 0 (no)
C=C(C)OC(C)=O; 0 (no)
CCOC(=O)C(C)(C)Oc1ccc(Cl)cc1; 0 (no)
CCOCCO; 0 (no)
C#C[C@]1(O)CC[C@H]2[C@@H]3CCC4=CC(=O)CC[C@@H]4[C@H]3CC[C@@]21CC; 0 (no)
CC(C)CC(C)CC(O)CC(C)C (configuration not stated); 0 (no)
Cn1cnc2c1c(=O)[nH]c(=O)n2C; 0 (no)
CC1=NN(c2ccccc2)C(=O)C1; 0 (no)
NC(=O)NO; 0 (no)
O=C(OCc1ccccc1)c1ccccc1; 0 (no)
NC(=O)N/N=C/c1ccc([N+](=O)[O-])o1; 0 (no)
COc1cc(O)c(C(=O)c2ccccc2)cc1S(=O)(=O)O; 0 (no)
CCCCC/C(C=O)=C\c1ccccc1; 0 (no)
CC1=C(/C=C/C(C)=C/C=C/C(C)=C/C(=O)O)C(C)(C)CCC1; 0 (no)
COCCOCCOC; 0 (no)
Cc1cccc(C)c1O; 0 (no)
C[C@]12C[C@H](O)[C@H]3[C@@H](CCC4=CC(=O)CC[C@@]43C)[C@@H]1CC[C@@H]2C(=O)CO; 0 (no)
CCN1CCCC1=O; 0 (no)
COC(=O)C1CCC(C(=O)OC)CC1 (configuration not stated); 0 (no)
CCCCOCCOCCSC#N; 0 (no)
CN(C)C=O; 0 (no)
Cc1cccc2ccccc12; 0 (no)
CO[C@H]1C=CO[C@@]2(C)Oc3c(C)c(O)c4c(O)c(c(/C=N/N5CCN(C)CC5)c(O)c4c3C2=O)NC(=O)/C(C)=C\C=C[C@H](C)[C@H](O)[C@@H](C)[C@@H](O)[C@@H](C)[C@H](OC(C)=O)[C@@H]1C; 0 (no)
C[C@]12CC[C@@H]3c4ccc(O)cc4C[C@@H](CCCCCCCCCS(=O)CCCC(F)(F)C(F)(F)F)[C@H]3[C@@H]1CC[C@@H]2O (some centres not stated); 0 (no)
CC(=O)c1ccc(S(=O)(=O)NC(=O)NC2CCCCC2)cc1; 0 (no)
CC(=O)OC/C=C(C)/C=C/C=C(C)/C=C/C1=C(C)CCCC1(C)C; 0 (no)
CCn1cc(C(=O)O)c(=O)c2ccc(C)nc21; 0 (no)
CC(C)(C)CC(C)(C)c1ccc(O)c(-n2nc3ccccc3n2)c1; 1 (yes)
c1ccc2[nH]c(-c3cscn3)nc2c1; 0 (no)
O=C(O)CCCCC1CCSS1 (configuration not stated); 0 (no)

----------
experiment: qHTS assay for identifying genotoxic compounds that show differential cytotoxicity against isogenic chicken DT40 cell lines with known DNA damage response pathways - Rev3 mutant cell line (AID 743014); conditions: chicken DT40 Rev3-/- viability, CellTiter-Glo, 40 h; series mostly up to 68.4 µM; also: nearly all actives have a fitted effect of over 55% in size; also: potency is read from the fitted curve at half-maximal effect
Results filed as inconclusive are left out. The source made the active and inactive calls. Calls come from the whole dose curve; as a rule, active = well fitted cell-killing curve with a large enough effect in the repeat runs; inconclusive = weak or mixed curves, or effect the other way; inactive = no such curve, though single readings can be large or run the other way.
reported.property: Potency

NC(=O)OCC(COC(N)=O)c1ccccc1; inactive
CC(=O)/C=C/C1=C(C)CCCC1(C)C; inactive
COc1ccccc1O; inactive
CCCCOC(=O)CCCCCCCCC(=O)OCCCC; 68.6 µM (active)
CC1=NN(c2ccccc2)C(=O)C1; inactive
CCCCC/C(C=O)=C\c1ccccc1; inactive
CC(C)(C)CC(C)(C)c1ccc(O)c(-n2nc3ccccc3n2)c1; inactive
C=CC(=O)NC(C)(C)CS(=O)(=O)O; inactive
CCCCCCCCCCCCCCCCCC(=O)OCC(O)CO (configuration not stated); inactive
CCCCCCCCCCCCCC(=O)OC(C)C; inactive
N[C@@H](Cc1c[nH]c2ccccc12)C(=O)O; inactive
OC[C@@H](O)[C@@H](O)[C@H](O)[C@H](O)CO; inactive
